Reference for the values: patent US12384769B2

# Test system: Rhipicephalus sanguineus
# Assay overview: Rhipicephalus sanguineus in-vitro contact test, adult brown dog ticks (RHIPSA Contact)
# Type: in vivo
# Measurement parameters: 5 μg/cm^2 (=500 g/ha), after 48 hours, read-out: activity (efficacy, ticks dead or moribund)
# Description: Rhipicephalus sanguineus—in-Vitro Contact Tests with Adult Brown Dog Ticks (RHIPSA Contact) 9 mg compound is solved in 1 ml acetone and diluted with acetone to the desired concentration. […] After the solvent has evaporated, each test tube is filled with 5-10 adult brown dog ticks (Rhipicephalus sanguineus), closed with a perforated lid and incubated in a lying position at room temperature and relative humidity. After 48 hours efficacy is determined. […]
Measured endpoint: pest or weed control at 5 µg/cm2, 5 µg/cm2

{"Molecular string": "Cc1cnc(-n2ncnc2[C@H](C)Nc2nc3cc(C(F)(F)F)c(Cl)cc3o2)nc1", "Observed value": "80%"}
{"Molecular string": "C[C@H](Nc1nc2cc(C(F)(F)F)c(Cl)cc2o1)c1ncnn1-c1ncc(Cl)cn1", "Observed value": "100%"}
{"Molecular string": "C[C@H](Nc1nc2cc(C(F)(F)F)cc(Cl)c2o1)c1ncnn1-c1ncc(Cl)cn1", "Observed value": "100%"}
{"Molecular string": "C[C@H](Nc1nc2cc(C(F)(F)F)cc(Br)c2o1)c1ncnn1-c1ncccn1", "Observed value": "100%"}
{"Molecular string": "C[C@H](Nc1nc2cc(C(F)(F)F)cc(Cl)c2o1)c1ncnn1-c1ccncn1", "Observed value": "100%"}
{"Molecular string": "C[C@H](Nc1nc2cc(C(F)(F)F)c(Cl)cn2n1)c1ncnn1-c1ncccn1", "Observed value": "100%"}
{"Molecular string": "C[C@H](Nc1nc2cc(C(F)(F)F)c(Cl)cc2o1)c1ncnn1-c1ccc(C(F)(F)F)cn1", "Observed value": "80%"}
{"Molecular string": "C[C@H](Nc1nc2cc(Cl)c(C(F)(F)F)cn2n1)c1ncnn1-c1ncccn1", "Observed value": "80%"}
{"Molecular string": "Cc1nc([C@H](C)Nc2nc3cc(C(F)(F)F)c(Cl)cc3o2)n(-c2ncccn2)n1", "Observed value": "80%"}

---

mortality at 100 ppm by entry:
# Test system: Ctenocephalides felis
# Assay overview: Ctenocephalides felis oral test (CTECFE)
# Type: in vivo
# Measurement parameters: 48 h, 100 ppm in cattle blood, after 2 days
Measured endpoint: mortality at 100 ppm (%)

{"Molecular string": "CCSc1cc2oc(N[C@@H](C)c3ncnn3-c3ncccn3)nc2cc1Cl", "Observed value": 90}
{"Molecular string": "C[C@H](Nc1nc2cc(C(F)(F)F)cc(Cl)c2o1)c1ncnn1-c1ncc(Br)cn1", "Observed value": 100}
{"Molecular string": "C[C@H](Nc1nc2cc(OC(F)(F)F)cc(Cl)c2o1)c1ncnn1-c1ncc(Cl)cn1", "Observed value": 100}
{"Molecular string": "C[C@H](Nc1nc2cc(OC(F)(F)F)cc(Cl)c2o1)c1ncnn1-c1ncc(Br)cn1", "Observed value": 100}

---

# Test system: Ctenocephalides felis
# Assay overview: Ctenocephalides felis oral test (CTECFE)
# Type: in vivo
# Measurement parameters: 48 h, 100 ppm in cattle blood, after 2 days

{"Molecular string": "C[C@H](Nc1nc2c(Cl)cc(C(F)(F)F)cn2n1)c1ncnn1-c1ncccn1", "Tested target": "Ctenocephalides felis", "Unit label": "%", "mortality at 100 ppm": 100}
{"Molecular string": "C[C@H](Nc1nc2cc(OC(F)F)cc(Cl)c2o1)c1ncnn1-c1ncc(Br)cn1", "Tested target": "Ctenocephalides felis", "Unit label": "%", "mortality at 100 ppm": 100}
{"Molecular string": "C[C@H](Nc1nc2cc(C(F)(F)F)cc(Cl)c2o1)c1ncnn1-c1ncc(Br)s1", "Tested target": "Ctenocephalides felis", "Unit label": "%", "mortality at 100 ppm": 100}
{"Molecular string": "C[C@H](Nc1nc2cc(C3CC3)cc(Cl)c2o1)c1ncnn1-c1ncccn1", "Tested target": "Ctenocephalides felis", "Unit label": "%", "mortality at 100 ppm": 100}
{"Molecular string": "C[C@H](Nc1nc2cc(C(F)(F)F)c(Cl)cc2o1)c1ncnn1-c1ncc(C2COC2)cn1", "Tested target": "Ctenocephalides felis", "Unit label": "%", "mortality at 100 ppm": 100}
{"Molecular string": "Cc1nc([C@H](C)Nc2nc3cc(C(F)(F)F)c(Cl)cc3o2)n(-c2ncccn2)n1", "Tested target": "Ctenocephalides felis", "Unit label": "%", "mortality at 100 ppm": 100}
{"Molecular string": "C[C@H](Nc1nc2cc(C(F)(F)F)cc(Cl)c2o1)c1ncnn1-c1nccs1", "Tested target": "Ctenocephalides felis", "Unit label": "%", "mortality at 100 ppm": 90}
{"Molecular string": "Cc1cc2oc(N[C@@H](C)c3ncnn3-c3ncccn3)nc2cc1Br", "Tested target": "Ctenocephalides felis", "Unit label": "%", "mortality at 100 ppm": 100}
{"Molecular string": "Cc1nc([C@H](C)Nc2nc3cc(C(F)(F)F)cc(Cl)c3o2)n(-c2ncccn2)n1", "Tested target": "Ctenocephalides felis", "Unit label": "%", "mortality at 100 ppm": 100}
{"Molecular string": "C[C@H](Nc1nc2cc(Br)cc(Cl)c2o1)c1ncnn1-c1ncccn1", "Tested target": "Ctenocephalides felis", "Unit label": "%", "mortality at 100 ppm": 100}
{"Molecular string": "C[C@H](Nc1nc2cc(C(F)(F)F)cc(C(F)(F)F)c2o1)c1ncnn1-c1ccc(C#N)cn1", "Tested target": "Ctenocephalides felis", "Unit label": "%", "mortality at 100 ppm": 100}
{"Molecular string": "C[C@H](Nc1nc2cc(OC(F)(F)F)cc(Cl)c2o1)c1ncnn1-c1ncccn1", "Tested target": "Ctenocephalides felis", "Unit label": "%", "mortality at 100 ppm": 100}
{"Molecular string": "C[C@H](Nc1nc2cc(C(F)(F)F)c(Cl)cc2o1)c1ncnn1-c1ccc(Cl)cn1", "Tested target": "Ctenocephalides felis", "Unit label": "%", "mortality at 100 ppm": 90}
